List of pIC50 values.
biological target: Short transient receptor potential channel 6 (Homo sapiens, UniProt Q9Y210); assay: Inhibition of human TRPC6 expressed in HEK293 cells assessed as decrease in intracellular calcium level after 24 hrs by Fluo-4 dye-based FLIPR assay
Sequence (Q9Y210 whole entry): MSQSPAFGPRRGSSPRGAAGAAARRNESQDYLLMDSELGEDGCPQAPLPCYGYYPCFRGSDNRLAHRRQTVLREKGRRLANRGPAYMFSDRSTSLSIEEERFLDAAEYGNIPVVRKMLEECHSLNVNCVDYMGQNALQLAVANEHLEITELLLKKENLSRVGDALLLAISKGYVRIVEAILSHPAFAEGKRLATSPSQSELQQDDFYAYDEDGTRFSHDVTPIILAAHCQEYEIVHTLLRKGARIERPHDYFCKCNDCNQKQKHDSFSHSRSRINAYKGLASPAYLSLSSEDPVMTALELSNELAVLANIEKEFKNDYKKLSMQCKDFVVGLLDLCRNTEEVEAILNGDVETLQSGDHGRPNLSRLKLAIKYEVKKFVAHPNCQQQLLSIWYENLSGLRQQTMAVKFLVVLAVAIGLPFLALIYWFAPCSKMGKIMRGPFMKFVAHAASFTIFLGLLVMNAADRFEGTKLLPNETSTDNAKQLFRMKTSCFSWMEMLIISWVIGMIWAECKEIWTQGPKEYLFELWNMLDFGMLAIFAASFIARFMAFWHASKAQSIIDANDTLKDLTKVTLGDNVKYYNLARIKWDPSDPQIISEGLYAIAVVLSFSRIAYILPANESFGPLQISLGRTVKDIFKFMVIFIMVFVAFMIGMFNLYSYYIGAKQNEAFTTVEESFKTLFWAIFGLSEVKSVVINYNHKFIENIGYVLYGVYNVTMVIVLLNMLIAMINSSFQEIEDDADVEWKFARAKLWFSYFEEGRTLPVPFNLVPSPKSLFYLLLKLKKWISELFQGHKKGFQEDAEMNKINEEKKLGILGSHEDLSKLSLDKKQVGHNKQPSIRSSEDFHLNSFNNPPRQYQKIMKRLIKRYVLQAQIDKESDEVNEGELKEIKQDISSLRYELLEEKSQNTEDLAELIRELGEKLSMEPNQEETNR
In simple prose, pIC50 is minus the logarithm base ten of a concentration in moles per litre.

Solved cases below.
MOLECULE: N#Cc1ccc(O[C@@H]2[C@@H]3[C@H](C[C@H]2N2CCC[C@@H](N)C2)[C@@H]2CC(=O)[C@H]3C2)cc1
MEASUREMENT_TARGET: Short transient receptor potential channel 6 (Homo sapiens, UniProt Q9Y210)
pIC50: 8.10
--
MOLECULE: N#Cc1ccc(O[C@@H]2CCC[C@H]2N2CCC[C@@H](N)C2)cc1
MEASUREMENT_TARGET: Short transient receptor potential channel 6 (Homo sapiens, UniProt Q9Y210)
pIC50: 6.30
--
MOLECULE: C[C@@]12CCC(=O)C[C@@H]1C[C@@H](N1CCC[C@@H](N)C1)[C@@H]2Oc1ccc(C#N)cc1
MEASUREMENT_TARGET: Short transient receptor potential channel 6 (Homo sapiens, UniProt Q9Y210)
pIC50: 6.41
--
MOLECULE: N#Cc1ccc(O[C@@H]2CCC[C@H]2N2CCC[C@@H](N)C2)c(Cl)c1
MEASUREMENT_TARGET: Short transient receptor potential channel 6 (Homo sapiens, UniProt Q9Y210)
pIC50: 6.18
--
MOLECULE: N#Cc1ccc(O[C@@H]2C3CC(=O)[C@@H]3C[C@H]2N2CCC[C@@H](N)C2)cc1 (single isomer, unassigned)
MEASUREMENT_TARGET: Short transient receptor potential channel 6 (Homo sapiens, UniProt Q9Y210)
pIC50: 6.80
--
MOLECULE: C[C@]12CCC(=O)C[C@H]1C[C@@H](N1CCC[C@@H](N)C1)[C@@H]2Oc1ccc(C#N)cc1
MEASUREMENT_TARGET: Short transient receptor potential channel 6 (Homo sapiens, UniProt Q9Y210)
pIC50: 7.96
--
MOLECULE: CN(C)C(=O)/C=C1\CC[C@@]2(C)[C@@H](C1)C[C@@H](N1CCC[C@@H](N)C1)[C@@H]2Oc1ccc(C#N)cc1 (mixture of isomers)
MEASUREMENT_TARGET: Short transient receptor potential channel 6 (Homo sapiens, UniProt Q9Y210)
pIC50: 6.55

# input for lookup
Q) Kindly indicate its recorded pIC50. Item: `C[C@]12CCCC[C@H]1C[C@@H](N1CCC[C@@H](N)C1)[C@@H]2Oc1ccc(C#N)cc1`
A) 7.43

###

target: Sodium channel protein type 5 subunit alpha (Homo sapiens); assay: Inhibition of human Nav1.5 expressed in HEK293 cells at -80 mV holding potential after 5 mins by patch clamp assay
Sequence (Q14524 whole entry): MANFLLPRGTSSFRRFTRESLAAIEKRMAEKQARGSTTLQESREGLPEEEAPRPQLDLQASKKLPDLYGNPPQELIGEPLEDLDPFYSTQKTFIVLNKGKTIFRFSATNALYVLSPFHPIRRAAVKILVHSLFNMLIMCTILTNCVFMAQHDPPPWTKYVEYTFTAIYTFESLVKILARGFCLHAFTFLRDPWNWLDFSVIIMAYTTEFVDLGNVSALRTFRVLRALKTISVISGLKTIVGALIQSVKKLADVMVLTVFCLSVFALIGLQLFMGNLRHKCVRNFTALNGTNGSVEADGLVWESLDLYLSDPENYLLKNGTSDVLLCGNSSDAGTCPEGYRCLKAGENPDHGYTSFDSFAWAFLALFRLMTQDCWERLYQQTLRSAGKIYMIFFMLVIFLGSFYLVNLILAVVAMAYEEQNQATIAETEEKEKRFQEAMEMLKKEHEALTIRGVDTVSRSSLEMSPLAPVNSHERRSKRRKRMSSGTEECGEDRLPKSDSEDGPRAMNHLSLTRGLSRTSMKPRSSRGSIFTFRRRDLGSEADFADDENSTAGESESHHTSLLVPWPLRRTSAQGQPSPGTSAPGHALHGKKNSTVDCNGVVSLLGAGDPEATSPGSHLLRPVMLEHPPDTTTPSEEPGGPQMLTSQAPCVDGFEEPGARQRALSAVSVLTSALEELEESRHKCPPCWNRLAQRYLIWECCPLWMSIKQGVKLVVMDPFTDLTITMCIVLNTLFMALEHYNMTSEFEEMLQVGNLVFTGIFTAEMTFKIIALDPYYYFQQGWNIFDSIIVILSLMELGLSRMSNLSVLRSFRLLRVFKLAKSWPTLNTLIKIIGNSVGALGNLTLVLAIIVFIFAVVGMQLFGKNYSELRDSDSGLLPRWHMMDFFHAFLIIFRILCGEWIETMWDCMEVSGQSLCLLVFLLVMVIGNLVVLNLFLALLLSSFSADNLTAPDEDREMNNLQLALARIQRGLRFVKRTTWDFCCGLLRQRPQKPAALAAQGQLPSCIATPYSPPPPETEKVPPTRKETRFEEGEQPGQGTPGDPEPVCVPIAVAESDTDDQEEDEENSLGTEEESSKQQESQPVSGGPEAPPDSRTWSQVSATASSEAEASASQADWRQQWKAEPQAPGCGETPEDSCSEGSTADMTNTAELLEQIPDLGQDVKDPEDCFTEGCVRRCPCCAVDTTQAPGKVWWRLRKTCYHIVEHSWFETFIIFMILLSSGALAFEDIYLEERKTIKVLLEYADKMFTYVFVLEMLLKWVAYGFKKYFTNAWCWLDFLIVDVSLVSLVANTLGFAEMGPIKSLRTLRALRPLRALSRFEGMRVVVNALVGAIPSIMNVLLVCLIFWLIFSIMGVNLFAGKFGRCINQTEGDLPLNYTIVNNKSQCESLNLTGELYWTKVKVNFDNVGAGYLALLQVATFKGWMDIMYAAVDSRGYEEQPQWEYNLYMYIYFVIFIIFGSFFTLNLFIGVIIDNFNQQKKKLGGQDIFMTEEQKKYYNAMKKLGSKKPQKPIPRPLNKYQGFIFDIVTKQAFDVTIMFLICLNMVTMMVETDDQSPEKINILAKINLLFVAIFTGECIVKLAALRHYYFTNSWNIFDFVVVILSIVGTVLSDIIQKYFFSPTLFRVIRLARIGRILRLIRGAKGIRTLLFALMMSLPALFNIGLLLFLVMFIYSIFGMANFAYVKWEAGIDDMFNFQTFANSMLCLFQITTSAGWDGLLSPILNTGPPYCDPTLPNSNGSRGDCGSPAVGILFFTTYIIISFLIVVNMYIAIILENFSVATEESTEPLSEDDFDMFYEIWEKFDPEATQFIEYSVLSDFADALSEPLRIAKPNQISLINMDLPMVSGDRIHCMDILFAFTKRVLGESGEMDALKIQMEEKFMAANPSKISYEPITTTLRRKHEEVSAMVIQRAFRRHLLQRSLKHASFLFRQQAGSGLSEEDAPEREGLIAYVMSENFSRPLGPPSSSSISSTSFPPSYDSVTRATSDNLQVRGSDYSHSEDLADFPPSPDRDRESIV
MEASURE: IC50

Solved cases below.
COMPOUND: C[C@]12CCC(F)(F)C[C@H]1C[C@@H](N1CCC[C@@H](N)C1)[C@@H]2Oc1ccc(C#N)cc1
MEASUREMENT_TARGET: Sodium channel protein type 5 subunit alpha (Homo sapiens)
IC50: 27 µM
--
COMPOUND: CO/N=C1\CC[C@@]2(C)[C@@H](C1)C[C@@H](N1CCC[C@@H](N)C1)[C@@H]2Oc1ccc(C#N)cc1 (mixture of isomers)
MEASUREMENT_TARGET: Sodium channel protein type 5 subunit alpha (Homo sapiens)
IC50: > 30 µM
--
COMPOUND: CC1(O)CC[C@@]2(C)[C@H](C[C@@H](N3CCC[C@@H](N)C3)[C@@H]2Oc2ccc(C#N)cc2)C1 (mixture of isomers)
MEASUREMENT_TARGET: Sodium channel protein type 5 subunit alpha (Homo sapiens)
IC50: > 100 µM

# input for lookup
Q) Kindly indicate its recorded IC50. Item: N#Cc1ccc(O[C@@H]2C3CC(=O)[C@@H]3C[C@H]2N2CCC[C@@H](N)C2)cc1 (single isomer, unassigned)
A) > 100 µM

###

molecular target: Sodium channel protein type 5 subunit alpha (Homo sapiens); assay: Inhibition of human Nav1.5 expressed in HEK293 cells at -80 mV holding potential after 5 mins by patch clamp assay
List of IC50 values.

Solved cases below.
STRUCTURE_STRING: C[C@]12CC[C@H](O)C[C@H]1C[C@@H](N1CCC[C@@H](N)C1)[C@@H]2Oc1ccc(C#N)cc1
MEASUREMENT_TARGET: Sodium channel protein type 5 subunit alpha (Homo sapiens)
IC50: > 100 µM
--
STRUCTURE_STRING: C[C@]12CC[C@@H](O)C[C@H]1C[C@@H](N1CCC[C@@H](N)C1)[C@@H]2Oc1ccc(C#N)cc1
MEASUREMENT_TARGET: Sodium channel protein type 5 subunit alpha (Homo sapiens)
IC50: > 100 µM
--
STRUCTURE_STRING: C[C@]12CCC(F)=C[C@H]1C[C@@H](N1CCC[C@@H](N)C1)[C@@H]2Oc1ccc(C#N)cc1
MEASUREMENT_TARGET: Sodium channel protein type 5 subunit alpha (Homo sapiens)
IC50: > 30 µM
--
STRUCTURE_STRING: N#Cc1ccc(O[C@@H]2[C@@H]3[C@H](C[C@H]2N2CCC[C@@H](N)C2)[C@@H]2CC(=O)[C@H]3C2)cc1
MEASUREMENT_TARGET: Sodium channel protein type 5 subunit alpha (Homo sapiens)
IC50: > 100 µM
--
STRUCTURE_STRING: C[C@]12CCCC[C@H]1C[C@@H](N1CCC[C@@H](N)C1)[C@@H]2Oc1ccc(C#N)cc1
MEASUREMENT_TARGET: Sodium channel protein type 5 subunit alpha (Homo sapiens)
IC50: 18 µM

Q) Write IC50 of `CO[C@H]1CC[C@@]2(C)[C@@H](C1)C[C@@H](N1CCC[C@@H](N)C1)[C@@H]2Oc1ccc(C#N)cc1` ; system used: Sodium channel protein type 5 subunit alpha (Homo sapiens)
A) > 30 µM

Q) Write IC50 of `C[C@@]12CCC(=O)C[C@@H]1C[C@@H](N1CCC[C@@H](N)C1)[C@@H]2Oc1ccc(C#N)cc1` ; system used: Sodium channel protein type 5 subunit alpha (Homo sapiens)
A) > 100 µM

Q) Write IC50 of `C[C@]12CC[C@H](C(F)F)C[C@H]1C[C@@H](N1CCC[C@@H](N)C1)[C@@H]2Oc1ccc(C#N)cc1` ; system used: Sodium channel protein type 5 subunit alpha (Homo sapiens)
A) 29 µM

###

assay: Half life in mouse at 10 mg/kg, po; format: ADME, organism-based; details: in vivo
MEASURE: half-life (h)
Please respond with the number in h and leave the unit unwritten.

Q) Kindly indicate its recorded half-life. Item: `C[C@]12CCC(=O)C[C@H]1C[C@@H](N1CCC[C@@H](N)C1)[C@@H]2Oc1ccc(C#N)cc1`
A) 2.9

###

assay: Oral bioavailability in mouse at 10 mg/kg; type: ADME, organism-based; settings: in vivo
MEASURE: bioavailability (%)
Please respond with the number in % and leave the unit unwritten.

Q) Kindly indicate its recorded bioavailability. Item: `C[C@]12CCC(=O)C[C@H]1C[C@@H](N1CCC[C@@H](N)C1)[C@@H]2Oc1ccc(C#N)cc1`
A) 50

###

molecular target: Short transient receptor potential channel 6 (Homo sapiens); experiment: Inhibition of human TRPC6 expressed in HEK293 cells assessed as decrease in intracellular calcium level after 24 hrs by Fluo-4 dye-based FLIPR assay
List of IC50 values.

Q) Kindly indicate its recorded IC50. Item: N#Cc1ccc(O[C@@H]2C3CCC(=O)[C@@H]3C[C@H]2N2CCC[C@@H](N)C2)cc1 (single isomer, unassigned)
A) 22 nM

Q) Kindly indicate its recorded IC50. Item: `C[C@]12CC[C@@H](O)C[C@H]1C[C@@H](N1CCC[C@@H](N)C1)[C@@H]2Oc1ccc(C#N)cc1`
A) 49 nM

###

assay: Cmax in mouse at 10 mg/kg, po; type: ADME, organism-based; set-up: dose 10 mg/kg, route oral; details: in vivo
MEASURE: Cmax
A bare number is not enough; add the unit after it.

Q) Kindly indicate its recorded Cmax. Item: `C[C@]12CCC(=O)C[C@H]1C[C@@H](N1CCC[C@@H](N)C1)[C@@H]2Oc1ccc(C#N)cc1`
A) 260 nM

###

biological target: Sodium channel protein type 5 subunit alpha (Homo sapiens); assay: Inhibition of human Nav1.5 expressed in HEK293 cells at -80 mV holding potential after 5 mins by patch clamp assay
List of IC50 values.

MOLECULE: N#Cc1ccc(O[C@@H]2C3CCC(=O)[C@@H]3C[C@H]2N2CCC[C@@H](N)C2)cc1 (single isomer, unassigned)
IC50: > 100 µM
--
MOLECULE: C[C@]12CCC(=O)C[C@H]1C[C@@H](N1CCC[C@@H](N)C1)[C@@H]2Oc1ccc(C#N)cc1
IC50: > 300 µM
--
MOLECULE: CO[C@@H]1CC[C@@]2(C)[C@@H](C1)C[C@@H](N1CCC[C@@H](N)C1)[C@@H]2Oc1ccc(C#N)cc1
IC50: > 30 µM

# input for lookup
Q) Kindly indicate its recorded IC50. Item: CN(C)C(=O)/C=C1\CC[C@@]2(C)[C@@H](C1)C[C@@H](N1CCC[C@@H](N)C1)[C@@H]2Oc1ccc(C#N)cc1 (mixture of isomers)
A) > 100 µM
